Where these numbers come from: patent US20160362460A1

Target: T1, Human CTLA-4-Fc (Chimerigen, CHI-HF-210A4-M001) (human, UniProt P16410 37-162)
T1 construct: Bought protein; also called hCTLA-4; not shown: Fc part of the bought fusion
T1 sequence (P16410 37-162 limits assumed, change not shown): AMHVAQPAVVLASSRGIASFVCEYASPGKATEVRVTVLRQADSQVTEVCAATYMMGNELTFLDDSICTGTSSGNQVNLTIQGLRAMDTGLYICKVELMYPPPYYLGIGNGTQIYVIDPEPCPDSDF
Assay: SPR (Biacore T200), human CTLA-4-Fc captured by anti-human IgG-Fc, mutein as analyte, 1:1 fit
pKd: −log10 of the molar value.
Each record here notes measured pKd.
QUANTITY MEASURED: pKd

>>> reported_value("lipocalin mutein SEQ ID NO: 65 (designed binder) QDSTSDLIPAPPLSKVPLQQNFQDNQFQGKWYVVGLAGNRILRDDQHPMPMYATIYELKEDKSYQVTSVISSHKKCLYPIATFVPGSQPGEFTLGNIKSYGDKWSYLVRVVSTNYNQHAMVFFKHADSNYESFSITLYGRTKELTSELKENFIRFSKSLGLPENHIVFPVPIDQCIDGSAWSHPQFEK")
9.21
>>> reported_value("lipocalin mutein SEQ ID NO: 66 (designed binder) QDSTSDLIPAPPLSKVPLQQNFQDNQFQGKWYVVGLAGNRILRLDQHPMPMYATIYELKEDKSYQVTSVISSHKKCLYPIATFVPGSQPGEFTLGNIRSYGDKTSYLVRVVSTNYNQHAMVFFKHADTNYESFSITLYGRTKELTSELKENFIRFSKSLGLPENHIVFPVPIDQCIDGSAWSHPQFEK")
8.74
>>> reported_value("lipocalin mutein SEQ ID NO: 62 (designed binder) QDSTSDLIPAPPLSKVPLQQNFQDNQFQGKWYVVGLAGNRILRDDQHPMPMYATIYELKGDKSYNVTSVISSHKKCLYPIATFVPGSQPGEFTLGNIKSYGDKWSYLVRVVSTDYNQYAVVFFKHADSNYESFSITIYGRTKELASELKENFIRFSKSLGLPENHIVFPVPIDQCIDG")
9.44
>>> reported_value("lipocalin mutein SEQ ID NO: 94 (designed binder) QDSTSDLIPAPPLSKVPLQQNFQDNQFQGKWYVVGLAGNRILRQDQHPMPMYATIYELKEDKSYQVTSVISSHKKCLYPIATFVPGSQPGEFTLGNIKSYGDKVSYLVRVVSTNYNQHAMVFFKYADRNFESFSITLYGRTKELTSELKENFIRFSKSLGLPENHIVFPVPIDQCIDG")
8.74
>>> reported_value("lipocalin mutein SEQ ID NO: 61 (designed binder) QDSTSDLIPAPPLSKVPLQQNFQDNQFQGKWYVVGLAGNRILRLDQHPMPMYATIYELKGDKSYNVTSVISSHKKCLYPIATFVPGSQPGEFTLGNIRSYGDKTSYLVRVVSTDYNQYAVVFFKHADTNYESFSITIYGRTKELASELKENFIRFSKSLGLPENHIVFPVPIDQCIDG")
9.03
>>> reported_value("CTLA-4 specific lipocalin mutein (SEQ ID NO: 4) (designed binder, hNGAL (lipocalin 2) mutein) QDSTSDLIPAPPLSKVPLQQNFQDNQFHGKWYVVGLAGNRILRDDQHPMPMYATIYELKGDKSYNVTSVISSHKKCLYPIATFVPGSQPGEFTLGNIKSYGDKWSYLVRVVSTDYNQYAVVFFKHADSNYESFSITIYGRTKELASELKENFIRFSKSLGLPENHIVFPVPIDQCIDG")
9.46
